# Organism: Rattus norvegicus
# method: Open TG-GATES - Regimen: Single
# Assay type: toxicity, organism-based, Sprague-Dawley
# Set-up: regimen Single, gender Male, age 6 weeks
# measurement-setup: in vivo, po, 0 mg/kg, 24 h, tissue Plasma, route gavage, dose level Control
Please note: TG exactly at 90 mg/dL is NO. Only values below 90 mg/dL get YES.

INSERT INTO measurements (compound, class_name) VALUES
  ('CNCCC(Oc1ccc(C(F)(F)F)cc1)c1ccccc1.Cl (stereo unspecified) [FLUOXETINE HYDROCHLORIDE]', 'NO'),
  ('S=C=Nc1cccc2ccccc12 [1-NAPHTHYLISOTHIOCYANATE]', 'NO'),
  ('COc1ccc(O)c(C(C)(C)C)c1.COc1ccc(O)cc1C(C)(C)C [BUTYLATED HYDROXYANISOLE]', 'YES'),
  ('CS(=O)(=O)Nc1ccc([N+](=O)[O-])cc1Oc1ccccc1 [NIMESULIDE]', 'YES'),
  ('COc1ccc(Cl)cc1C(=O)NCCc1ccc(S(=O)(=O)NC(=O)NC2CCCCC2)cc1 [GLYBURIDE]', 'NO'),
  ('Cn1cnc([N+](=O)[O-])c1Sc1ncnc2nc[nH]c12 [AZATHIOPRINE]', 'NO'),
  ('Cc1cccc(Nc2cc(Cl)nc(SCC(=O)O)n2)c1C [PIRINIXIC ACID]', 'YES'),
  ('O=C1NC(=O)C(c2ccccc2)(c2ccccc2)N1 [PHENYTOIN]', 'NO'),
  ('C=CCO [ALLYL ALCOHOL]', 'NO'),
  ('Cc1cnc(NC(=O)C2=C(O)c3ccccc3S(=O)(=O)N2C)s1 [MELOXICAM]', 'NO');
